# tested-target: Urease subunit alpha/Urease subunit beta (Helicobacter pylori (strain ATCC 700392 / 26695) (Campylobacterpylori), UniProt P69996)
# Sequence (P69996 whole entry): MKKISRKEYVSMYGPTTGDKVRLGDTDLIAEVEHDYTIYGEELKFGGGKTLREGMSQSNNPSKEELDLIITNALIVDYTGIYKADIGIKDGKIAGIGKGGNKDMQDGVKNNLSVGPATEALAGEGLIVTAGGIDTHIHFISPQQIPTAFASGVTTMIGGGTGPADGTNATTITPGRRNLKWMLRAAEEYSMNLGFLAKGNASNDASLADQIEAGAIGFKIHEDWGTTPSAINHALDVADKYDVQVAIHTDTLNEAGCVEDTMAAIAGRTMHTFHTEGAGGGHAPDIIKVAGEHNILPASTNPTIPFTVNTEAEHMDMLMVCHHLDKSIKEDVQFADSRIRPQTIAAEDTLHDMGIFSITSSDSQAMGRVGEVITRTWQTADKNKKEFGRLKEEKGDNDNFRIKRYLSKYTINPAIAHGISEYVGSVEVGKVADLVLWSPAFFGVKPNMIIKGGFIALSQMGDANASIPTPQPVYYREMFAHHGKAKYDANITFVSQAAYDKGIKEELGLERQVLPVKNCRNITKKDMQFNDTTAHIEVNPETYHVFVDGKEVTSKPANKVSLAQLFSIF
# Sequence (P14916 whole entry, further chain): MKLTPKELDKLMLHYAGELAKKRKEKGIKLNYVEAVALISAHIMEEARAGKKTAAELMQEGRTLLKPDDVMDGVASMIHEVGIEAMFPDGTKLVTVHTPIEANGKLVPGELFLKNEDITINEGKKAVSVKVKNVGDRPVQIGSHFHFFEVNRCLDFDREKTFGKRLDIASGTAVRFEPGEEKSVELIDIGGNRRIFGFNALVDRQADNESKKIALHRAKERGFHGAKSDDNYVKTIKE
# method-summary: Inhibition of Helicobacter pylori ATCC 43504 urease assessed as ammonia production after 3 hrs by indophenol method
readout-name: IC50 (µM)

INSERT INTO measurements (smiles_data, readout_name, result_number) VALUES
  ('Cc1ncc([N+](=O)[O-])n1CCOC(=O)c1cc(Cl)ccc1OCCn1c([N+](=O)[O-])cnc1C', 'IC50', 12),
  ('Cc1ncc([N+](=O)[O-])n1CCOC(=O)c1cc(Br)ccc1OCCn1c([N+](=O)[O-])cnc1C', 'IC50', 26);

====

# inhibition values compiled below
# tested-target: Urease subunit alpha/Urease subunit beta (Helicobacter pylori (strain ATCC 700392 / 26695) (Campylobacterpylori)) (UniProt P69996+P14916)
# Sequence (P14916 whole entry, looked up): as the sequence (P14916 whole entry, further chain) above
# Sequence (P69996 whole entry, looked up): as the sequence (P69996 whole entry) above
# method-summary: Inhibition of Helicobacter pylori ATCC 43504 urease assessed as ammonia production at 1 mM after 3 hrs by indophenol method
readout-name: inhibition

INSERT INTO results (smiles_data, readout_name, result) VALUES
  ('Cc1ccc(OCCn2c([N+](=O)[O-])cnc2C)c(C(=O)OCCn2c([N+](=O)[O-])cnc2C)c1', 'inhibition', '48.4%'),
  ('Cc1ncc([N+](=O)[O-])n1CCOc1c(Br)cc(Br)cc1C(=O)O', 'inhibition', '56.1%'),
  ('Cc1ccc(C(=O)OCCn2c([N+](=O)[O-])cnc2C)c(OCCn2c([N+](=O)[O-])cnc2C)c1', 'inhibition', '38.3%'),
  ('Cc1ncc([N+](=O)[O-])n1CCOC(=O)c1cc(S(=O)(=O)O)ccc1OCCn1c([N+](=O)[O-])cnc1C', 'inhibition', '61.2%'),
  ('Cc1ncc([N+](=O)[O-])n1CCOC(=O)c1cc(I)ccc1OCCn1c([N+](=O)[O-])cnc1C', 'inhibition', '78.7%');
